Each record here notes measured pIC50.
- system: MSUT2
- experimentNotes: Fluorescence polarization orthogonal assay, FAM-poly
- Type: binding
- testParameters: read-out: IC50 (FP = FP assay); without DTT; 125 nM MSUT2, 10 nM FAM-RNA
Please note pIC50 is a logarithmic value: minus log10 of concentration in mol/L. Answer with that number alone.

compound	pIC50
O=C(O)C1=CC(=C(c2ccc(O)c(C(=O)O)c2)c2ccc(O)c(C(=O)O)c2)C=CC1=O [Aurin tricarboxylic acid, aurin tricarboxylic acid]	5.15
O=S(=O)(O)c1cc(N=C=S)ccc1C=Cc1ccc(N=C=S)cc1S(=O)(=O)O [DIDS]	5.20

Please find the next compound below.
Q) Look up and report pIC50, with MSUT2 as system, for O=C1C(Cl)=C(Cl)C(=O)c2c(O)ccc(O)c21 [2,3-Dichloro-5,8-dihydroxynapthoquinone, 2,3-dichloro-5,8-dihydroxynapthoquinone]
A) 5.88

---

List of IC50 values.
- system: MSUT2
- experimentNotes: Fluorescence polarization orthogonal assay, FAM-poly
- Format: binding
- testParameters: read-out: IC50 (FP+DTT = FP in the presence of reducing agent DTT); with DTT
# number only, unit µM dropped from output

Q) Item O=C1C(Cl)=C(Cl)C(=O)c2c(O)ccc(O)c21 [2,3-Dichloro-5,8-dihydroxynapthoquinone, 2,3-dichloro-5,8-dihydroxynapthoquinone] : provide IC50
A) 1.56

Q) State its IC50: O=C(O)C1=CC(=C(c2ccc(O)c(C(=O)O)c2)c2ccc(O)c(C(=O)O)c2)C=CC1=O [Aurin tricarboxylic acid, aurin tricarboxylic acid]
A) 7.19

Q) Given the compound O=S(=O)(O)c1cc(N=C=S)ccc1C=Cc1ccc(N=C=S)cc1S(=O)(=O)O [DIDS] , write its reported IC50.
A) 6.02
